biological target: human muscarinic M1 receptor (Homo sapiens, UniProt P11229); test: Alphascreen Surefire phospho-ERK1/2 functional assay, M1; assay type: cell-based; details: CHO cells stably expressing human M1, relative to ACh
Sequence (P11229 whole entry): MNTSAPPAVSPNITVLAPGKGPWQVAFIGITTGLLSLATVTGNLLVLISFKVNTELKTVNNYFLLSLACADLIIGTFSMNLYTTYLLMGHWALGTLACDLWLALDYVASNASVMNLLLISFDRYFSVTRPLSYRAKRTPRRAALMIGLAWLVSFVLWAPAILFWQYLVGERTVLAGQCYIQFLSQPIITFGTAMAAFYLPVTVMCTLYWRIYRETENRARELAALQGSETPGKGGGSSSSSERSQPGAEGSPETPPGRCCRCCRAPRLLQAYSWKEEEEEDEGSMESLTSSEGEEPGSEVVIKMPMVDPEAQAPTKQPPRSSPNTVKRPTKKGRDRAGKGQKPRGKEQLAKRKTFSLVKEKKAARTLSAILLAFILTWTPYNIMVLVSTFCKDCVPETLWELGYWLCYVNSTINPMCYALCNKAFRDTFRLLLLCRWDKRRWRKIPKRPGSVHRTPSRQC
assay readout: % Emax cf. ACh, M1 (%)
Answers are plain numbers, in %.

1) C#CCOC(=O)N1C2CCC1CC(N1CCC3(CC1)CNC(=O)C3)C2 (single isomer, unassigned) [Example 2-4 Isomer 2]    86
2) CCOC(=O)N1C2CCC1CC(N1CCC3(CC1)CC(=O)NC3Cc1ccccc1)C2 (single isomer, unassigned) [Example 2-10 Isomer 2]    77

Below are some molecules; for each one, tell me its % Emax cf. ACh, M1.
1. CCOC(=O)N1CC2CCC1CC2N1CCC2(CC1)CNC(=O)O2 (single isomer, unassigned) [Example 3-2 Isomer 2]
2. CCOC(=O)N1C2CCC1CC(N1CCC3(CC1)CNC(=O)O3)C2 (single isomer, unassigned) [Example 2-14 Isomer 2]
3. [2H]C([2H])([2H])C([2H])([2H])OC(=O)N1C2CCC1CC(N1CCC3(CC1)CNC(=O)C3)C2 (single isomer, unassigned) [Example 2-32 Isomer 2]
4. CCOC(=O)N1C2CCCC1CC(N1CCC3(CC1)CNC(=O)O3)C2 (single isomer, unassigned) [Example 5-4 Isomer 2]
5. CCOC(=O)N1C2CCC1C(F)C(N1CCC3(CC1)CNC(=O)C3)C2 (single isomer, unassigned) [Example 2-11 Isomer 2]

1. 127
2. 92
3. 77
4. 72
5. 101

* * *

biological target: human muscarinic M1 receptor (Homo sapiens, UniProt P11229); assay: Alphascreen Surefire phospho-ERK1/2 functional assay, M1; format: cell-based; settings: CHO cells stably expressing human M1, read-out: pEC50 M1 (converted)
assay readout: EC50 (nM)
Answers are plain numbers, in nM.

1. CCOC(=O)N1C2CCCC1CC(N1CCC3(CC1)CNC(=O)C3)C2 (single isomer, unassigned) [Example 5-1 Isomer 1]    316
2. CCOC(=O)N1C2CCC1CC(N1CCC3(CC1)CC(=O)N(CC)C3)C2 (single isomer, unassigned) [Example 2-13 Isomer 2]    158
3. CCSC(=O)N1C2CCC1CC(N1CCC3(CC1)CNC(=O)C3)C2 (single isomer, unassigned) [Example 2-35 Isomer 1]    39.8
4. CSC(=O)N1C2CCC1CC(N1CCC3(CC1)CNC(=O)C3)C2 (single isomer, unassigned) [Example 2-34 Isomer 1]    501
5. [2H]C([2H])([2H])COC(=O)N1C2CCC1CC(N1CCC3(CC1)CNC(=O)C3)C2 (single isomer, unassigned) [Example 2-31 Isomer 1]    126

For the next question, use this compound.
Return value of EC50 for input CCOC(=O)N1C2CCC1C(F)C(N1CCC3(CC1)CNC(=O)O3)C2 (single isomer, unassigned) [Example 2-19 Isomer 2] , no commentary.
1000

* * *

target: UniProtKB P08172; experiment: Alphascreen Surefire phospho-ERK1/2 functional assay, M2; assay type: cell-based; conditions: CHO cells stably expressing human M2, read-out: pEC50 M2 (converted)
assay readout: EC50

Some molecules with known EC50 results, for comparison:
1. [2H]C([2H])([2H])C([2H])([2H])OC(=O)N1C2CCC1CC(N1CCC3(CC1)CNC(=O)C3)C2 (single isomer, unassigned) [Example 2-32 Isomer 1]    > 20 µM
2. CCOC(=O)N1C2CCC1CC(N1CCC3(CC1)CC(=O)NC3Cc1ccccc1)C2 (single isomer, unassigned) [Example 2-10 Isomer 1]    > 20 µM

Shifting focus to the molecule that follows.
Look up and state reported EC50 for CCOC(=O)N1C2CCC1CC(N1CCCC3(CC1)CNC(=O)C3)C2 (single isomer, unassigned) [Example 9-1 Isomer 2]
> 20 µM

* * *

Target: human muscarinic M4 receptor (Homo sapiens, UniProt P08173)
Construct: expressed in transfected cells
Sequence (P08173 1-479): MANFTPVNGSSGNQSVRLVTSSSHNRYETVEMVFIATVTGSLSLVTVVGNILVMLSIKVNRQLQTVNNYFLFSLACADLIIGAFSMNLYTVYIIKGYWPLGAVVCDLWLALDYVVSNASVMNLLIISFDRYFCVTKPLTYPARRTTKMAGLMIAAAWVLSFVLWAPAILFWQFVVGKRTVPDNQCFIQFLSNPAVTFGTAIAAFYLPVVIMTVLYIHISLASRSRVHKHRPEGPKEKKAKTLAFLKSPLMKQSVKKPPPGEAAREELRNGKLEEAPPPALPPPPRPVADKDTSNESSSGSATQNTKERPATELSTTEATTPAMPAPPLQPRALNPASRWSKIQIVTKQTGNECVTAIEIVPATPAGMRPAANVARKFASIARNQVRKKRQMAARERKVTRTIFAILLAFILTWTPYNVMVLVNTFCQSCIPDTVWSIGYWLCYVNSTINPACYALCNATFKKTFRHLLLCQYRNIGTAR
Assay: Alphascreen Surefire phospho-ERK1/2 functional assay, M4
Type: cell-based
Details: CHO cells stably expressing human M4, read-out: pEC50 M4 (converted)
Assign EC50 to each entry below.
Answers are plain numbers, in µM.

1) CCOC(=O)N1C2CCC1CC(N1CCC3(CC1)CC(=O)NC3Cc1ccccc1)C2 (single isomer, unassigned) [Example 2-10 Isomer 1]    0.0794

// for each molecule in input: emit EC50
1. CCOC(=O)N1CC2CCC1CC2N1CCC2(CC1)CNC(=O)O2 (single isomer, unassigned) [Example 3-2 Isomer 2]
2. CCOC(=O)N1CC2CCC1CC2N1CCC2(CC1)CNC(=O)O2 (single isomer, unassigned) [Example 3-2 Isomer 1]
3. [2H]C([2H])(C)OC(=O)N1C2CCC1CC(N1CCC3(CC1)CNC(=O)C3)C2 (single isomer, unassigned) [Example 2-30 Isomer 2]
4. CCOC(=O)N1C2CCC1CC(N1CCCC3(CC1)CNC(=O)O3)C2 (single isomer, unassigned) [Example 9-2 Isomer 3]
5. CCOC(=O)N1C2CCC1CC(N1CCC3(CC1)CC(=O)NC3Cc1ccccc1)C2 (single isomer, unassigned) [Example 2-10 Isomer 2]
6. CCOC(=O)N1CC2CCC1CC2N1CCC2(CC1)OC(=O)NC2CC (single isomer, unassigned) [Example 3-3 Isomer 2]

[0.398, 1.26, 0.0794, 0.0794, 0.126, 0.316]

Respectfully, I request EC50 for each entry included below.
1. C#CCOC(=O)N1C2CCC1CC(N1CCC3(CC1)CNC(=O)C3)C2 (single isomer, unassigned) [Example 2-4 Isomer 1]
2. CCOC(=O)N1C2CCC1CC(N1CCCC3(CC1)CNC(=O)C3)C2 (single isomer, unassigned) [Example 9-1 Isomer 2]
3. C#CCOC(=O)N1C2CCCC1CC(N1CCC3(CC1)CNC(=O)C3)C2 (single isomer, unassigned) [Example 5-2 Isomer 2]
4. CCOC(=O)N1C2CCC1CC(N1CCC3(CC1)CNC(=O)O3)C2 (single isomer, unassigned) [Example 2-14 Isomer 2]

1. 0.126
2. 0.00251
3. 0.0631
4. 0.0794

Quick one: give me EC50 for each item below, same order please.
1. CCOC(=O)N1C2CCC1CC(N1CCC3(CC1)OC(=O)NC3C(C)C)C2 (single isomer, unassigned) [Example 2-17 Isomer 2]
2. CCOC(=O)N1C2CCC1CC(N1CCC3(CC1)OC(=O)NC3CC)C2 (single isomer, unassigned) [Example 2-16 Isomer 1]
3. COC(=O)N1C2CCC1CC(N1CCC3(CC1)CNC(=O)C3)C2 (single isomer, unassigned) [Example 2-1 Isomer 2]
4. CC(C)OC(=O)N1C2CCC1CC(N1CCC3(CC1)CNC(=O)C3)C2 (single isomer, unassigned) [Example 2-33 Isomer 2]

0.1
0.0794
1.58
0.316

* * *

target: human muscarinic M4 receptor (Homo sapiens); construct: expressed in transfected cells; assay: Alphascreen Surefire phospho-ERK1/2 functional assay, M4; assay type: cell-based; details: CHO, read-out: % Emax cf. ACh, M4, CHO cells stably expressing human M4, relative to ACh
Would you kindly list Emax for each of these molecules?
Numbers only, in %.

1) COC(=O)N1CC2CC(N3CCC4(CC3)CNC(=O)C4)CC1C2 (single isomer, unassigned) [Example 6-1 Isomer 1]    53
2) CC#CCOC(=O)N1C2CCC1CC(N1CCC3(CC1)CNC(=O)C3)C2 (single isomer, unassigned) [Example 2-5 Isomer 1]    87

Now take the following molecule into account.
Consider the molecule CCOC(=O)N1C2CCC1CC(N1CCC3(CC1)CC(=O)N(C(C)C)C3)C2 (single isomer, unassigned) [Example 2-26 Isomer 2] and give its recorded Emax.
22

* * *

Target: human muscarinic M2 receptor (Homo sapiens)
Sequence (P08172 1-466): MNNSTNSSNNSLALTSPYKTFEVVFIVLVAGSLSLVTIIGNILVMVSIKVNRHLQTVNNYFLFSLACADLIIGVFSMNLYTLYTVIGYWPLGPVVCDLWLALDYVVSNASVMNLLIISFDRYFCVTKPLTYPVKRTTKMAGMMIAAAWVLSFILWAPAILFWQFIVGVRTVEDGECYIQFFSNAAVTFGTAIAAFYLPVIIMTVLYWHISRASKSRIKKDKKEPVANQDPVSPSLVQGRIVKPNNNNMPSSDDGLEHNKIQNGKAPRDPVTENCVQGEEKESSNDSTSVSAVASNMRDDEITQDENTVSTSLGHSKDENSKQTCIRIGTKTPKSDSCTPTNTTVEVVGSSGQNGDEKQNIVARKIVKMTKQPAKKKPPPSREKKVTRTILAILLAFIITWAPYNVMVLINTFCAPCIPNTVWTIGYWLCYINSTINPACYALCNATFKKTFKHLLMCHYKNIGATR
Assay: Alphascreen Surefire phospho-ERK1/2 functional assay, M2
Format: cell-based
Details: CHO cells stably expressing human M2, read-out: pEC50 M2 (converted)
assay readout: EC50

Previously resolved entries follow.
1. CC#CCOC(=O)N1[C@@H]2CCC[C@H]1CC(N1CCC3(CC1)CNC(=O)C3)C2 (mixture of isomers)    > 20 µM
2. CCOC(=O)N1CC2CCC1CC2N1CCC2(CC1)CNC(=O)C2 (single isomer, unassigned) [Example 3-1 Isomer 3]    > 20 µM

Now for another entry.
// Input: CCOC(=O)N1C2CCC1C(F)C(N1CCC3(CC1)CNC(=O)C3)C2 (single isomer, unassigned) [Example 2-11 Isomer 2] . Output its EC50 only.
> 20 µM
